Test system: HIV-1
TEST SUMMARY: HIV-1 replication in acutely infected H9 lymphocytes (p24 antigen ELISA)
Type: cell-based, HIV-1 (IIIB isolate)
CONDITION NOTES: Table 1; H9 cells; therapeutic index
MEASURE: T.I.

>>> observed_measurement("CC(C)[C@@H]1CC[C@]2(C(=O)O)CC[C@]3(C)[C@H](CC[C@@H]4[C@@]5(C)CC[C@H](O)C(C)(C)[C@@H]5CC[C@]43C)[C@@H]12 [Compound 6, dihydrobetulinic acid, reference compound]")
14.0
>>> observed_measurement("C=C(C)[C@@H]1CC[C@]2(C(=O)O)CC[C@]3(C)[C@H](CC[C@@H]4[C@@]5(C)CC[C@H](OC(=O)C(C)(C)CC(=O)O)C(C)(C)[C@@H]5CC[C@]43C)[C@@H]12")
5.9
>>> observed_measurement("CC(C)[C@@H]1CC[C@]2(C(=O)O)CC[C@]3(C)[C@H](CC[C@@H]4[C@@]5(C)CC[C@H](OC(=O)C(C)(C)CC(=O)O)C(C)(C)[C@@H]5CC[C@]43C)[C@@H]12")
13.8
